Tested On: Recombinant CYP3A4 Supersomes (Homo sapiens, UniProt P08684)
Construct: purchased
Sequence (P08684 whole entry): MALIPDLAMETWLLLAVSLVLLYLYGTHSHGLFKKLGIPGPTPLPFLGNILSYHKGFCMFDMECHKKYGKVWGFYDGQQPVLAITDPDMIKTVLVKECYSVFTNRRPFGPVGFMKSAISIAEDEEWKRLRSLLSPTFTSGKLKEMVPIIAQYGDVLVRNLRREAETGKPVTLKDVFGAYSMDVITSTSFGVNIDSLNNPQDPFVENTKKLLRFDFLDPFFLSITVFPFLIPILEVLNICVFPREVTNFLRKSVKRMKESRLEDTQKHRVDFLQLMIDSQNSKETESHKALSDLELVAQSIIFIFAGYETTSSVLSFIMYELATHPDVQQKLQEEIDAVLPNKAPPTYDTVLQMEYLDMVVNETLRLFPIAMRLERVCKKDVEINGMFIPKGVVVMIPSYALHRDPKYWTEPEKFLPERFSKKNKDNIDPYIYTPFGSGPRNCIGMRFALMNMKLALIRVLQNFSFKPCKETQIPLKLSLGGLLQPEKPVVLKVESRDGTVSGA
Assay Method Text: Recombinant CYP3A4 Clearance Assay
Assay type: in vitro ADME
Details: recombinant CYP3A4 50 pmol/mL, 1 μM substrate, NADPH; control = geometric mean of 3 replicates
Attribute Measured: CLint (µL/min/pmol)
Answers are plain numbers, in µL/min/pmol.

[
  {
    "Molecule": "[2H]C1([2H])CN(CC(=O)NC(C)(C)C)CC([2H])([2H])C1CNC(=O)c1cc(F)cc(Cl)c1 [Compound 3]",
    "CLint (µL/min/pmol)": 1.45
  }
]

Count: 4. Required value per item: CLint.
1. [2H]C([2H])(NC(=O)c1cc(F)cc(Cl)c1)C1CCN(CC(=O)NC(C)(C)C([2H])([2H])[2H])CC1 [Compound 10]
2. [2H]C1([2H])CC(CNC(=O)c2cc(F)cc(Cl)c2)CC([2H])([2H])N1CC(=O)NC(C([2H])([2H])[2H])(C([2H])([2H])[2H])C([2H])([2H])[2H] [Compound 16]
3. CC(C)(C)NC(=O)CN1CCC(CNC(=O)c2cc(F)cc(Cl)c2)CC1 [Control, reference compound]
4. [2H]C([2H])(C(=O)NC(C)(C)C([2H])([2H])[2H])N1CCC(CNC(=O)c2cc(F)cc(Cl)c2)CC1 [Compound 21]

-- reply
1.43
1.08
1.76
1.66

The value of CLint measured for the molecule [2H]C1([2H])CC(CNC(=O)c2cc(F)cc(Cl)c2)CC([2H])([2H])N1CC(=O)NC(C)(C)C([2H])([2H])[2H] [Compound 22] turned out to be 1.54
